The origin of these recorded values is patent EP3807270B1.

Molecular target: hERG channel (Homo sapiens)
Construct: expressed in transfected cells; host or cells: CHO (Chinese hamster ovary)
Sequence (Q12809 whole entry): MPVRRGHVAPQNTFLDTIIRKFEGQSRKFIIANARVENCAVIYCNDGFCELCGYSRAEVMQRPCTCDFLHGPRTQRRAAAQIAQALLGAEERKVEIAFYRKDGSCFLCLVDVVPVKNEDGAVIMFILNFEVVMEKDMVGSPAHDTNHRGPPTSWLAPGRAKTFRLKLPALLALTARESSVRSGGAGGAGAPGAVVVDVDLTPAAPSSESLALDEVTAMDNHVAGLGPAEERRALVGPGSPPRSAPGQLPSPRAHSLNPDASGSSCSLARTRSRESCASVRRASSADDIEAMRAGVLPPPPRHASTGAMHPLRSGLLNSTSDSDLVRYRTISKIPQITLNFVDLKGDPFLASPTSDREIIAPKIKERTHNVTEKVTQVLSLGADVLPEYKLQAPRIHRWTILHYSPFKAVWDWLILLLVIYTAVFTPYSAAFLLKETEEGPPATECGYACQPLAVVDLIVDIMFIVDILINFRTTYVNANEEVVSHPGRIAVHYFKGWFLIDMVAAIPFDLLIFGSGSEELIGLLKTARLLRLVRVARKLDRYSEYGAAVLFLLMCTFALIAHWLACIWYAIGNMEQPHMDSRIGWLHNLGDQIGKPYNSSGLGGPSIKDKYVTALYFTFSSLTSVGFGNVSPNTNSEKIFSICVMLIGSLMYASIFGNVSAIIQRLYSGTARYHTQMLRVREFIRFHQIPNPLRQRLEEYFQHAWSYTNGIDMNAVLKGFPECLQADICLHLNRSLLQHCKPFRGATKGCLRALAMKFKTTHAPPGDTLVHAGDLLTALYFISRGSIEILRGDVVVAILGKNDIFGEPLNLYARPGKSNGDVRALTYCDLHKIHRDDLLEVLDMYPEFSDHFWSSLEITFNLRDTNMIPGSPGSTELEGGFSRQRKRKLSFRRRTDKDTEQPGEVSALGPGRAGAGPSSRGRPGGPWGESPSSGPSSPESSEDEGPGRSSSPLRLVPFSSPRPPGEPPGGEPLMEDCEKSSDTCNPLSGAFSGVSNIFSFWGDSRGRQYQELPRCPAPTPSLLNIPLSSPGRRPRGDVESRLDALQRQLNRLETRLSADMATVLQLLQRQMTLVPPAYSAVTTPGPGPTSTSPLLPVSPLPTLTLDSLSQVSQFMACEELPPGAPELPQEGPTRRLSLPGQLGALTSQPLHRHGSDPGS
Assay: hERG channel inhibition assay (patch-clamp, CHO hERG cells)
Type: cell-based
Conditions: safety ratio; TLR7 IC50 of ER compounds from Table 1
MEASURED_QUANTITY: hERG IC20 / TLR7 IC50
One number for each entry.

Would you mind giving hERG IC20 / TLR7 IC50 for every molecule in the list below?
1. C[C@@H]1CN(c2ccc(C#N)c3ncccc23)C[C@H](CN2CCN(c3ccc4c(c3)CNC4)CC2)O1 [Example 7]
2. C[C@@H]1CN(c2ccc(C#N)c3ncccc23)C[C@H](CN2CCN(c3ccc(Cl)cc3)CC2)O1 [Example R2, reference compound]
3. C[C@@H]1CN(c2ccc(C#N)c3ncccc23)C[C@H](CN2CCN(c3ccccc3)CC2)O1 [ER-887258, reference compound]

[146.5, 1.3, 8.1]

----------
Target: hTLR9 (Homo sapiens)
Sequence (Q9NR96 26-1032): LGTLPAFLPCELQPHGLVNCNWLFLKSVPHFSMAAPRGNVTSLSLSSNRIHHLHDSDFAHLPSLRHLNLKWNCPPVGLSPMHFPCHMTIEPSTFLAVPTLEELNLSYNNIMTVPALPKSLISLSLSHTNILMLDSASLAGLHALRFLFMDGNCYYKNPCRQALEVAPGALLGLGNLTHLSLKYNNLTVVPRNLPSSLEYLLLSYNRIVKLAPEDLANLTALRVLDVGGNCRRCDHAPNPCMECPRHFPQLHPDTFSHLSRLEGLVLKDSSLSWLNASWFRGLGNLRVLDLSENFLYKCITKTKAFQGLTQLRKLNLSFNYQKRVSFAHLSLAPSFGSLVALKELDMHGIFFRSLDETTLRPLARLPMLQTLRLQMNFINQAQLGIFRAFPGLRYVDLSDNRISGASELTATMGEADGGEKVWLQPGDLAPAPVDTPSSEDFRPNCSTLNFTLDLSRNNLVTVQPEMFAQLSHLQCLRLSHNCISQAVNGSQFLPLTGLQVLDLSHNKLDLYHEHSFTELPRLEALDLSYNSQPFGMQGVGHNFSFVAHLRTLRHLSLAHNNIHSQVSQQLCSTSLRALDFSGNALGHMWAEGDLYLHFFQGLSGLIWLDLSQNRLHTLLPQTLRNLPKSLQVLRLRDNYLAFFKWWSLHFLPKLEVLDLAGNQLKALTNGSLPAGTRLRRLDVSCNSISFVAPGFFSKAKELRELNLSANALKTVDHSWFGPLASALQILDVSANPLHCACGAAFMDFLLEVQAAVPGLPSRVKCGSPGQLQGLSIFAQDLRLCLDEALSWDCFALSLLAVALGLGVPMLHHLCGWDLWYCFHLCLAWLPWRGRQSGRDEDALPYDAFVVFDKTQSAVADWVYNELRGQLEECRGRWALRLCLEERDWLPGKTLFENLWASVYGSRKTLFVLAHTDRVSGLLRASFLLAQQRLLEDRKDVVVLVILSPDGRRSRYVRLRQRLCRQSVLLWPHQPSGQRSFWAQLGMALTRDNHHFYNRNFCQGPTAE
Experiment: HEK293-Blue-hTLR-9 cells assay (SEAP reporter, ODN2006 stimulation)
Format: cell-based
Parameters: host or cells: HEK293 (HEK-Blue)
Conditions: HEK293-Blue-hTLR9 cells, ODN2006, 20 hrs; read-out: HEK/hTLR9 IC50
Kindly state pIC50 for each of the entries shown.
Numbers only, as −log10 of the molar value.

Consider the worked cases shown below.
COMPOUND	EXPERIMENTAL_RESULT
C[C@@H]1CN(c2ccc(C#N)c3nccnc23)C[C@H](CN2CCN(c3cc4c(cn3)[C@H](C)NCC4)CC2)O1 (single isomer, unassigned) [Example 85]	7.06
C[C@@H]1CN(c2ccc(C#N)c3ncccc23)C[C@H](CN2CCN(c3cnc4c(c3)CN[C@H]4C)CC2)O1 (single isomer, unassigned) [Example 67]	6.84
C[C@@H]1CN(c2ccc(C#N)c3ncccc23)C[C@H](CN2CCN(c3cc4c(cn3)CNCC4)CC2)O1 [Example 19]	7.20

Hi there! I need pIC50 for each item below, if you can.
1. C[C@@H]1CN(c2ccc(C#N)c3ncccc23)C[C@H](CN2CCN(c3cc4c(cn3)C[C@H](C)NC4)CC2)O1 (single isomer, unassigned) [Example 76]
2. C[C@@H]1CN(c2ccc(C#N)c3ncccc23)C[C@H](CN2CCN(c3ccc(Cl)cc3)CC2)O1 [Example R2, reference compound]
3. [2H]c1nc2c(C#N)ccc(N3C[C@H](CN4CCN(c5cc6c(cn5)[C@H](C)NCC6)CC4)O[C@H](C)C3)c2nc1[2H] (single isomer, unassigned) [Example 94]

1: 7.01; 2: 5.15; 3: 7.15
